# EXPERIMENTAL_PROTOCOL: modulators of CD8 T cell-vesicle binding, confirmation, cherry-picked primary hits, two concentrations (AID 2810);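 note: lower values mean blocking of vesicle binding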
# CONDITION_LABEL: 2C CD8+ T cell-vesicle binding, flow cytometry; CD8+/vesicle+ events; at 15.4 µM; stronger effect = lower value
Hit rate of the full screen: of about 1,200 compounds, about 65 (5%) were called active. What follows is part of a selection rich in actives, with near analogues and random picks from the rest.
MEASURED_ATTRIBUTE: double positive events (%)
Field format: number, assumed %, no unit text.

COc1ccc(/C(O)=C2/C(=O)C(=O)N(Cc3cccnc3)C2c2ccco2)cc1OC (stereo not given) :: 0.8
Cc1ccc(NC(=S)N(CCCN2CCOCC2)Cc2cccs2)c(C)c1 :: 24.8
Cc1c(C(=O)N(C)Cc2ccccc2)oc2ccc(S(=O)(=O)N3CCCC3)cc12 :: 12.7
O=C(NCc1ccncc1)C(=O)NCC(c1ccco1)N1CCN(c2ccccc2F)CC1 (stereo not given) :: 13.3

Now examine the next entry.
INPUT: Which value of double positive events has been reported for CCOc1ccccc1NC(=O)C(OC(=O)c1ccccc1O)c1ccccc1 (stereo not given) in the records?
OUTPUT: 21.5

---

# EXPERIMENTAL_PROTOCOL: modulators of CD8 T cell-vesicle binding, confirmation, cherry-picked primary hits, two concentrations (AID 2810);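 note: lower values mean blocking of vesicle binding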
# CONDITION_LABEL: 2C CD8+ T cell-vesicle binding, flow cytometry; CD8+/vesicle+ events; at 7.7 µM
In all, about 1,200 compounds went through this assay and about 65 (5%) were called active. Many of the other results were omitted from the sample, so actives are more common in it than they were.
double positive events values, listed per item
Report the figure in % without appending any unit label.

INPUT: Entry under review: CCOC(=O)CSc1nnnn1-c1cc(OC)c(Cl)cc1OC . Reported double positive events?
OUTPUT: 20.1

INPUT: Record: CCOC(=O)CSc1nnc(-c2ccc(Cl)cc2Cl)o1
OUTPUT: 16.3

INPUT: Also check CCCN(Cc1ccc(N(C)C)cc1)CC1CC1
OUTPUT: 16.6

INPUT: Next molecule: Cc1cc(C)nc(SCCn2c(N3CC(C)OC(C)C3)nc3c2c(=O)n(C)c(=O)n3C)n1 (stereo unspecified)
OUTPUT: 12.7

INPUT: Try this molecule next: COC(=O)c1ccc(OC(=O)CS(=O)c2ccccc2[N+](=O)[O-])cc1 (stereo unspecified)
OUTPUT: 15

INPUT: Input COc1ccccc1CNC(=O)COc1ccc(C)cc1
OUTPUT: 13.1

---

# EXPERIMENTAL_PROTOCOL: modulators of CD8 T cell-vesicle binding, confirmation, cherry-picked primary hits, two concentrations (AID 2810);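 note: lower values mean blocking of vesicle binding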;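 for percent response (vesicle binding): ratio of mean FL2 vesicle stain of CD8+ cells to that row's control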
# CONDITION_LABEL: 2C CD8+ T cell-vesicle binding, flow cytometry; response; at 7.7 µM
In all, about 1,200 compounds went through this assay and about 65 (5%) were called active. Shown is part of a subset that was picked to be rich in actives.
MEASURED_ATTRIBUTE: percent response (vesicle binding) (%)
Give the value in % but do not write % after it.

Below are worked cases with known answers.
O=C(CN1C(=O)C2CCCN2C(=O)c2ccccc21)Nc1ccccc1-n1cccc1 (stereo not given) :: 425
Cc1cccc(C(=O)OCC(=O)Nc2ccc3c(c2)OCCO3)c1O :: 113
CCn1nc(C(=O)NCCc2ccc3c(c2)OCCO3)c2ccccc2c1=O :: 148
O=C(c1c[nH]c2ccccc12)N1CCN(Cc2ccccc2)CC1 :: 181

Continue with the compound presented below.
INPUT: Recorded percent response (vesicle binding) for CCOC(=O)c1c(NC(=O)CN2C(=O)NC3(CCC(C)CC3)C2=O)sc(C)c1-c1ccc(C)cc1 (stereo not given) , please?
OUTPUT: 363
